- target.system: T1, His-tagged human MET antigen (human, UniProt P08581 25-932)
- T1 construct: Soluble antigen used as analyte in SPR; not shown: His tag
- T1 sequence (P08581 25-932 limits assumed): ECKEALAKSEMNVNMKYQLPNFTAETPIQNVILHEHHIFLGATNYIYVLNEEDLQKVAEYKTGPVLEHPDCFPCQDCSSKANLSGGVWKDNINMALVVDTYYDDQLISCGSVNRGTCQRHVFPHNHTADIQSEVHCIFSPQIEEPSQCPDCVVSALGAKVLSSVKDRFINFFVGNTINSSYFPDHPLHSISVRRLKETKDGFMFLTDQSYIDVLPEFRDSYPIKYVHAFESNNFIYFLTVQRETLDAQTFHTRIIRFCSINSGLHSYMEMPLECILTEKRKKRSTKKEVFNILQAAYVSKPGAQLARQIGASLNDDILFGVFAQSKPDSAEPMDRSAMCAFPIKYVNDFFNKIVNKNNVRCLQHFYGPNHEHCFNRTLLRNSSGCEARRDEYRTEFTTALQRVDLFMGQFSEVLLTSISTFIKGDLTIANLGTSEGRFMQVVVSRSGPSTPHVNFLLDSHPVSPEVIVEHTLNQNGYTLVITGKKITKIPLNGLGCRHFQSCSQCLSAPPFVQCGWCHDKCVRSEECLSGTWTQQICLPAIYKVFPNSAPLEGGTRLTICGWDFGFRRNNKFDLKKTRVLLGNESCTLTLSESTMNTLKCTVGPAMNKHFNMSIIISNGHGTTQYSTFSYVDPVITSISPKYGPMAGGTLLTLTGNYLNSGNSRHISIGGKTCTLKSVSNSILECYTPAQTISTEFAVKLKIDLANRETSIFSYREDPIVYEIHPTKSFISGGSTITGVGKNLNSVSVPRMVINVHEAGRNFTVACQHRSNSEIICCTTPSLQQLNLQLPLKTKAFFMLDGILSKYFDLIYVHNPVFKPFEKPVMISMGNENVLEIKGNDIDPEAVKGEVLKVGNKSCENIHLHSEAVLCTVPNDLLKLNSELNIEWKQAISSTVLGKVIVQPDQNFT
- test.summary: SPR, Biacore 8K; antibody captured, His-tagged human MET antigen 6.25-400 nM as analyte; 1:1 Langmuir
readout.type: pKd
pKd field: float, defined as -log10 of concentration (mol/L).

Antibody A13 T31V (antibody, human IgG1, kappa, V domains shown, Differs from antibody A13 only by T to V at position 31 of VL) VH: QVQLVQSGAEVKKPGASVKVSCEASGYTFTSYGFSWVRQAPGQGLEWMGWISASNGNTYYAQKLQGRVTMTTDTSTSSAYMELRSLRSDDTAVYYCARVYADYADYWGQGTLVTVSS VL: DIQMTQSPSSVSASVGDRVTITCRASQGINVWLAWYQQKPGKAPKLLIYAASSLKSGVPSRFSGSGSGADFTLTISSLQPEDFATYYCQQANSFPLTFGGGTKVEIKR = 7.03
Antibody A13 N30S (antibody, human IgG1, kappa, V domains shown, Differs from antibody A13 only by N to S at position 30 of VL) VH: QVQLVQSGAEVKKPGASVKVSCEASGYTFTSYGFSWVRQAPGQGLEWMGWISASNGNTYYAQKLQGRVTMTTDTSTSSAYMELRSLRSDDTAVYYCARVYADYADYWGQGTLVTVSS VL: DIQMTQSPSSVSASVGDRVTITCRASQGISTWLAWYQQKPGKAPKLLIYAASSLKSGVPSRFSGSGSGADFTLTISSLQPEDFATYYCQQANSFPLTFGGGTKVEIKR = 8.11

// next item, pKd requested
I'd like to know its pKd. The binder in question is Anti-MET antibody A13 (antibody, human IgG1, kappa, V domains shown) VH: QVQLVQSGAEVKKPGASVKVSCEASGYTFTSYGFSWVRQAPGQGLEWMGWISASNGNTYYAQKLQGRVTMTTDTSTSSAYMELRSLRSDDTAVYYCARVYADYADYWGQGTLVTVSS VL: DIQMTQSPSSVSASVGDRVTITCRASQGINTWLAWYQQKPGKAPKLLIYAASSLKSGVPSRFSGSGSGADFTLTISSLQPEDFATYYCQQANSFPLTFGGGTKVEIKR 8.18

The reported measurements were obtained from patent EP4778941A1.
